- TARGET SYSTEM: ΔF508-CFTR (Homo sapiens, UniProt P13569, DEL508-508)
- Sequence (P13569 with tags, fused parts or gaps DEL508-508): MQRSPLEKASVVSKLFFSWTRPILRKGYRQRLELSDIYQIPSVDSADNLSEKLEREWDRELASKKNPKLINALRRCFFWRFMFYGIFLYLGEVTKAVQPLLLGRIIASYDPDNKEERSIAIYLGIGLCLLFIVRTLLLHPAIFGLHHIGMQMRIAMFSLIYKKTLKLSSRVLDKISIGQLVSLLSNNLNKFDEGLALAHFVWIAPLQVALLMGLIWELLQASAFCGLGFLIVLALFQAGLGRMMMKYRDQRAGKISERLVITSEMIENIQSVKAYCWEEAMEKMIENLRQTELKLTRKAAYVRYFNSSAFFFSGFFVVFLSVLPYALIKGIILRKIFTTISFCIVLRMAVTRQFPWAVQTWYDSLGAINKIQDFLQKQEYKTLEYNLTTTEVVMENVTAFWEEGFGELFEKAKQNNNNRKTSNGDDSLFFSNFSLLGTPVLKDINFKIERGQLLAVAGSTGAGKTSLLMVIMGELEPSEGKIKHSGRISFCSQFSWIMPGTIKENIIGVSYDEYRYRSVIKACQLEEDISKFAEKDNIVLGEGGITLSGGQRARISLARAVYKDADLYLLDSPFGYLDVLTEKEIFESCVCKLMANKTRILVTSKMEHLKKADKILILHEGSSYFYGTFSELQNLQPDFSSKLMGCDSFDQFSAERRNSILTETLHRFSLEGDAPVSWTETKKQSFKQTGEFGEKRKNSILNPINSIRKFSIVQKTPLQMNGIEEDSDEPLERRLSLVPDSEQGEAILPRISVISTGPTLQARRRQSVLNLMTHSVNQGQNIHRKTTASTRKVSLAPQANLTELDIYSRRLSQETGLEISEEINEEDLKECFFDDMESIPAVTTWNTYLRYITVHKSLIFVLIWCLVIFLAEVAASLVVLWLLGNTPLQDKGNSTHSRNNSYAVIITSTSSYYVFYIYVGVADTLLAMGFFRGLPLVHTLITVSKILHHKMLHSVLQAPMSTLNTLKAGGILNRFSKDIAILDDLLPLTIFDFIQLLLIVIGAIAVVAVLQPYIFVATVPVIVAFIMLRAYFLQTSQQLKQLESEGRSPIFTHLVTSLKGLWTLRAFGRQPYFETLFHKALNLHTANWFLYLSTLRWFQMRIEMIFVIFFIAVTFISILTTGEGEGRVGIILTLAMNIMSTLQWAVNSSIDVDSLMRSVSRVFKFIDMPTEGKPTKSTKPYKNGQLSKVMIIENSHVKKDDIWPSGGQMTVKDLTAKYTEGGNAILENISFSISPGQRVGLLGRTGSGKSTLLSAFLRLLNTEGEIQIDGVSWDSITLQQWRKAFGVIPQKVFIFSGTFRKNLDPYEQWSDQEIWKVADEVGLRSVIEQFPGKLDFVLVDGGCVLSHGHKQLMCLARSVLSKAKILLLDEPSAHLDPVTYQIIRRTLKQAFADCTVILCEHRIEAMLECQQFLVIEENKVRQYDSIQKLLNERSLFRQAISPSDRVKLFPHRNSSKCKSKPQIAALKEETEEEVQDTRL
- ASSAY NOTES: Membrane potential optical (FRET/VIPR) assay, identification of correction compounds
- TEST CONDITIONS: Table 3; assay not given
For each entry below, report its EC50 value.

input: Report EC50, nothing else, for this compound: CN(C)CCNC(c1cnc(NC(=O)C2(c3ccc4c(c3)OCO4)CC2)s1)c1ccccc1Cl (stereo not shown)
output: < 10 µM

input: Report EC50, nothing else, for this compound: CCN(CCO)C(c1cnc(NC(=O)C2(c3ccc4c(c3)OCO4)CC2)s1)c1ccccc1Cl (stereo not shown)
output: < 10 µM

input: Report EC50, nothing else, for this compound: O=C(Nc1ncc(Cc2ccccc2Cl)s1)C1(c2ccc(F)c(F)c2)CC1
output: < 10 µM

input: Report EC50, nothing else, for this compound: CC(C)[C@@H](CO)NC(c1cnc(NC(=O)C2(c3ccc4c(c3)OCO4)CC2)s1)c1ccccc1Cl (stereo partly shown)
output: < 10 µM

input: Report EC50, nothing else, for this compound: O=C(Nc1nn(-c2ccccc2)cc1-c1cccs1)C1(c2ccc3c(c2)OCO3)CC1
output: 10 to 25 µM

input: Report EC50, nothing else, for this compound: CS(=O)(=O)c1ccc(C(c2cnc(NC(=O)C3(c4ccc5c(c4)OCO5)CC3)s2)N2CCOCC2)cc1 (stereo not shown)
output: 10 to 25 µM

input: Report EC50, nothing else, for this compound: CCCc1nc(NC(=O)C2(c3ccc(OC)cc3)CC2)sc1C(=O)OCC
output: < 10 µM

input: Report EC50, nothing else, for this compound: O=C(Nc1ncc(Sc2ccc(Cl)cc2)s1)C1(c2ccc3c(c2)OCO3)CC1
output: 25 to 60 µM

input: Report EC50, nothing else, for this compound: CC(C)[C@H](CO)NC(c1cnc(NC(=O)C2(c3ccc4c(c3)OCO4)CC2)s1)c1ccccc1C(F)(F)F (stereo partly shown)
output: < 10 µM

input: Report EC50, nothing else, for this compound: Cc1ccccc1C(c1cnc(NC(=O)C2(c3ccc4c(c3)OCO4)CC2)s1)N1CCCC1 (stereo not shown)
output: < 10 µM

input: Report EC50, nothing else, for this compound: Cc1ccccc1C1(C(=O)Nc2ncc(C(c3ccccc3Cl)N3CC[C@@H](O)C3)s2)CC1 (stereo partly shown)
output: < 10 µM

input: Report EC50, nothing else, for this compound: O=C(Nc1ncc(C(c2ccccc2Cl)N2CC[C@@H](O)C2)s1)C1(c2ccccc2C(F)(F)F)CC1 (stereo partly shown)
output: < 10 µM

input: Report EC50, nothing else, for this compound: CC(CO)(CO)NC(c1cnc(NC(=O)C2(c3ccc4c(c3)OCO4)CC2)s1)c1ccccc1Cl (stereo not shown)
output: < 10 µM

input: Report EC50, nothing else, for this compound: COc1ccc(Cc2cnc(NC(=O)C3(c4ccc(OC)cc4)CC3)s2)cc1
output: < 10 µM

input: Report EC50, nothing else, for this compound: O=C(Nc1ncc(Cc2ccccc2Cl)s1)C1(c2ccc(-n3cncn3)cc2)CC1
output: < 10 µM

input: Report EC50, nothing else, for this compound: O=C(Nc1ncc(C(c2ccccc2C(F)(F)F)N2CCCC2)s1)C1(c2ccc3c(c2)OCO3)CC1 (stereo not shown)
output: < 10 µM

###

- TARGET SYSTEM: ΔF508-CFTR (Homo sapiens, UniProt P13569, DEL508-508)
- ASSAY NOTES: Membrane potential optical (FRET/VIPR) assay, identification of correction compounds
- TEST CONDITIONS: Table 3; assay not given
ASSAY READOUT: EC50

input: Report EC50, nothing else, for this compound: O=C(Nc1ncc(C(NCCCn2ccnc2)c2ccccc2Cl)s1)C1(c2ccc3c(c2)OCO3)CC1 (stereo not shown) [Example 408]
output: < 10 µM

input: Report EC50, nothing else, for this compound: O=C(Nc1ncc(C(c2ccccc2)N2CCC(O)CC2)s1)C1(c2ccc3c(c2)OCO3)CC1 (stereo not shown) [Example 351]
output: 10 to 25 µM

input: Report EC50, nothing else, for this compound: COc1ccc(C(c2cnc(NC(=O)C3(c4ccc5c(c4)OCO5)CC3)s2)N2CC[C@@H](O)C2)cc1 (stereo partly shown) [Example 352]
output: 10 to 25 µM

input: Report EC50, nothing else, for this compound: Cc1ccccc1C(N[C@@H](CO)CC(C)C)c1cnc(NC(=O)C2(c3ccc4c(c3)OCO4)CC2)s1 (stereo partly shown) [Example 477]
output: < 10 µM
